Test system: HIV-1 clinical isolates
Test: microbe, parasite or virus in culture
Type: cell-based
Settings: Human immunodeficiency virus 1, read-out: IC50 viral production, PBLs, clinical isolate JOGA (NSI)
measured endpoint: IC50

Q) Record request: IC50 value, item `Cc1cn([C@H]2C[C@H](N=[N+]=[N-])[C@@H](CO)O2)c(=O)[nH]c1=O`
A) > 1000 nM

----------
Tested on: HIV-1 strains (SKI, RF, DV, IIIB, ADP/141)
Experiment: microbe, parasite or virus in culture
Format: cell-based
Conditions: Human immunodeficiency virus 1, IIIB, read-out: IC50 (cpe assay), IIIB (MT4), MOI 0.01
measured endpoint: IC50 (nM)
Supply the numeric figure in nM, leaving out any unit text.

Q) Record request: IC50 value, item `Cc1cn([C@H]2C[C@H](N=[N+]=[N-])[C@@H](CO)O2)c(=O)[nH]c1=O`
A) 10
